System: RAD51 (Homo sapiens, UniProt Q06609 1-339)
Sequence (Q06609 whole entry): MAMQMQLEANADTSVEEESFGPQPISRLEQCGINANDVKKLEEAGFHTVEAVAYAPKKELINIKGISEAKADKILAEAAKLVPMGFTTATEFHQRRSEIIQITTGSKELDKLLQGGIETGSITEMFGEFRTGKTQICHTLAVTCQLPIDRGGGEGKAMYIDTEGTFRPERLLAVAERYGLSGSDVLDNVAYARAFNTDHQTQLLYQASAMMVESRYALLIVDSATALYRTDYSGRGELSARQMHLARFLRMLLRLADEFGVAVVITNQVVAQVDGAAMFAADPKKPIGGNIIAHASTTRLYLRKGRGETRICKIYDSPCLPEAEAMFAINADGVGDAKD
Procedure summary: BLI
This listing pairs binders with measured Kd.

Binder	Kd [nM]
GGGGGGGGGGGGGGG (ssDNA) [Apt2]	138
CGGCGCGGCGCGGCG (ssDNA) [Apt3]	188
GCGGGGGCGGGG (ssDNA) [Apt4]	413
CGGGCGGGCGGG (ssDNA) [Apt5]	936
GGGGCGGGGCGGGGC (ssDNA) [Apt1]	116
